Taken from ChEMBL document CHEMBL1649165.

# Test system: Hortaea werneckii
# Assay Summary: Antimicrobial activity against Hortaea werneckii by broth microdilution method
# Assay type: functional
*1 amine or outer side, *2 acyl side, *3 side chain or, on linkers, in order; H or OH if unused. Where a SMILES comes first, the peptide text is derived from it. Bridges are numbered along the chain shown (N, C = ends). [ ]: non-standard residue; d: D form. The star is where a group is joined. pTerphenylCO(4''-OnC5H11) = CCCCCOc1ccc(-c2ccc(-c3ccc(C(=O)*)cc3)cc2)cc1; Orn(4R-OH,5R-OH) = O=C([C@H](C[C@@H](O)[C@@H](O)N[*:3])N[*:1])[*:2]; hTyr(3S-OH,4S-OH) = N[C@H](C(=O)O)[C@H](O)[C@@H](O)c1ccc(O)cc1; Pro(3S-OH,4S-Me) = C[C@H]1CN[C@H](C(=O)O)[C@H]1O; Hyp = O=C(O)[C@@H]1C[C@@H](O)CN1
Readout Name: MIC50 (µg/mL)
Please respond with the number in µg/mL and leave the unit unwritten.

Please review the entries below; each comes with its answer.
CC[C@@H]([C@H](C)O)n1ncn(-c2ccc(N3CCN(c4ccc(OC[C@@H]5CO[C@@](Cn6cncn6)(c6ccc(F)cc6F)C5)cc4)CC3)cc2)c1=O ... 0.06
CC[C@H](C)C[C@H](C)CCCCCCCCC(=O)N[C@H]1C[C@@H](O)[C@@H](NCCN)NC(=O)[C@@H]2[C@@H](O)CCN2C(=O)[C@H]([C@H](O)CCN)NC(=O)[C@H]([C@H](O)[C@@H](O)c2ccc(O)cc2)NC(=O)[C@@H]2C[C@@H](O)CN2C(=O)[C@H]([C@@H](C)O)NC1=O ... 0.25

Field: next molecule
Exercise: So what does the record say about MIC50 for CCCCCOc1ccc(-c2ccc(-c3ccc(C(=O)N[C@H]4C[C@@H](O)[C@@H](O)NC(=O)[C@@H]5[C@@H](O)[C@@H](C)CN5C(=O)[C@H]([C@@H](C)O)NC(=O)[C@H]([C@H](O)[C@@H](O)c5ccc(O)cc5)NC(=O)[C@@H]5C[C@@H](O)CN5C(=O)[C@H]([C@@H](C)O)NC4=O)cc3)cc2)cc1 [ANIDULAFUNGIN] ({pTerphenylCO(4''-OnC5H11)}-[Orn(4R-OH,5R-OH)]T[Hyp][hTyr(3S-OH,4S-OH)]T[Pro(3S-OH,4S-Me)]; lactam 1-C) ?
Key: 0.03

====

# Test system: Neurospora sitophila
# Assay Summary: Antimicrobial activity against Chrysonilia sitophila by broth microdilution method
# Assay type: functional
Readout Name: MIC50

CC[C@H](C)C[C@H](C)CCCCCCCCC(=O)N[C@H]1C[C@@H](O)[C@@H](NCCN)NC(=O)[C@@H]2[C@@H](O)CCN2C(=O)[C@H]([C@H](O)CCN)NC(=O)[C@H]([C@H](O)[C@@H](O)c2ccc(O)cc2)NC(=O)[C@@H]2C[C@@H](O)CN2C(=O)[C@H]([C@@H](C)O)NC1=O [CASPOFUNGIN] ... > 16 µg/mL

Exercise: Could you tell me which MIC50 is on file for C[C@@H]1[C@H](O)[C@@H](C)/C=C/C=C/C=C/C=C/C=C/C=C/C=C/[C@H](O[C@@H]2O[C@H](C)[C@@H](O)[C@H](N)[C@@H]2O)C[C@@H]2O[C@](O)(C[C@@H](O)C[C@@H](O)[C@H](O)CC[C@@H](O)C[C@@H](O)CC(=O)O[C@H]1C)C[C@H](O)[C@H]2C(=O)O [AMPHOTERICIN B] ?
Key: 0.5 µg/mL
